- protocol: CHI Log D procedure
- Assay type: physicochemical
- protocol_conditions: pH 7.4
Listed below: CHI Log D values for each entry.
Keep the answer to the number alone.

molecule	CHI Log D
CC(=O)N1CCC[C@]12CC=CCCCC1(CCCC=CCCCCCC[C@@](C)(C(=O)N[C@@H](Cc3ccc(C(=O)O)cc3)C(=O)N[C@@H](Cc3csc4ccccc34)C(=O)N[C@@H](CCC(N)=O)C(N)=O)NC(=O)[C@H](C(C)C)NC(=O)[C@H](Cc3ccccc3)NC(=O)[C@H](C)NC(=O)[C@H](C)NC(=O)[C@H](CC(=O)O)NC(=O)[C@H](CC(=O)O)NC1=O)NC(=O)[C@H](C)NC(=O)[C@H](CC(=O)O)NC2=O (some centres unmarked) [I-340]	1.341

Alright, here's another molecule for you.
Query block: Quickly give me recorded CHI Log D for CC(=O)N1CCC[C@]12CC=CCCCC1(CCCC=CCCCOC(=O)N3CC[C@@](C(=O)N[C@@H](Cc4ccsc4)C(=O)N[C@@H](Cc4csc5ccccc45)C(=O)N[C@@H](CCC(N)=O)C(=O)NCCCCCCN)(C3)NC(=O)[C@H](CC(N)=O)NC(=O)[C@H](Cc3ccccc3)NC(=O)[C@H](C)NC(=O)[C@H](C)NC(=O)[C@H](CC(=O)O)NC(=O)[C@H](CC(=O)O)NC1=O)NC(=O)[C@H](CC(C)(C)C)NC(=O)[C@H](CC(=O)O)NC2=O (some centres unmarked) [I-881]
Result block: −0.008

###

Reported values of pEC50 for individual entries
- target_of_assay: full-length B-Catenin (Uniprot ID P35222) (Homo sapiens, UniProt P35222)
- Construct: 65 nM full-length B-Catenin (Uniprot ID P35222)
- Sequence (P35222 whole entry): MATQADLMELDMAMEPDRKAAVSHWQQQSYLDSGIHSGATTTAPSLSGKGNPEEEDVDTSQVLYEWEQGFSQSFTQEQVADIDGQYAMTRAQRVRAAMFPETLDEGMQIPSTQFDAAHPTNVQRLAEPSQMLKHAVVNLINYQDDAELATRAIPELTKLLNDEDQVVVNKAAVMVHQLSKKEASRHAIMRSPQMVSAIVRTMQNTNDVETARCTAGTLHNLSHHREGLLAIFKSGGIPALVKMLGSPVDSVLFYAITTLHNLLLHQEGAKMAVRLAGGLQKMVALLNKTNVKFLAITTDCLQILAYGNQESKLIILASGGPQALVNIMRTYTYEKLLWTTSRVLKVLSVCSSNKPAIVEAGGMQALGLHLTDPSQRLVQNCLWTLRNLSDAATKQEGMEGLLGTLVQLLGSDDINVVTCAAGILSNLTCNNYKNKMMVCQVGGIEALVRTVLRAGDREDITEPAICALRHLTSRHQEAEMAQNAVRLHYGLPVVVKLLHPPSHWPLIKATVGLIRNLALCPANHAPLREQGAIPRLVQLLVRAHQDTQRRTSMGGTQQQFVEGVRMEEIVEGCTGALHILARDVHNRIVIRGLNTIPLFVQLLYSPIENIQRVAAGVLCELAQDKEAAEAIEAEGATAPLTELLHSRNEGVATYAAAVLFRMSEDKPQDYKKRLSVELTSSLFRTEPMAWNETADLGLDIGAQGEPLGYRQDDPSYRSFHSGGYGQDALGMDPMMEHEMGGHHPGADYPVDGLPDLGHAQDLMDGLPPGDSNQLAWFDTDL
- protocol: Alphascreen binding assay (beta-catenin / biotin-TCF4 10-53)
Convention used: pEC50 is expressed as -log10 of the molar concentration.

compound	pEC50
CC(=O)N1CCC[C@]12CC=CCCCC1(CCCC=CCCCCCC[C@@](C)(C(=O)N[C@@H](Cc3ccccc3)C(=O)N[C@@H](Cc3c[nH]c4ccccc34)C(=O)N[C@@H](CCC(N)=O)C(N)=O)NC(=O)[C@H](C(C)C)NC(=O)[C@H](Cc3ccccc3)NC(=O)[C@H](C)NC(=O)[C@H](C)NC(=O)[C@H](Cc3ccc(O)cc3)NC(=O)[C@H](CC(=O)O)NC1=O)NC(=O)[C@H](C)NC(=O)[C@H](CC(=O)O)NC2=O (stereo partly drawn)	5.63
CC(=O)N1CCC[C@]12CC=CCCCC1(CCCC=CCCCCCC[C@@](C)(C(=O)N[C@@H](Cc3ccccc3)C(=O)N[C@@H](Cc3c[nH]c4ccccc34)C(=O)N[C@@H](CCC(N)=O)C(N)=O)NC(=O)[C@H](C(C)C)NC(=O)[C@H](Cc3ccccc3)NC(=O)[C@H](C)NC(=O)[C@H](C)NC(=O)[C@H](CCC(=O)O)NC(=O)[C@H](CC(=O)O)NC1=O)NC(=O)[C@H](C)NC(=O)[C@H](CC(N)=O)NC2=O (stereo partly drawn) [I-199]	6.10

// next item, pEC50 requested
Query block: # return pEC50 of CC(=O)N1CCC[C@]12CC=CCCCC1(CCCC=CCCCCCC[C@@](C)(C(=O)N[C@@H](Cc3ccccc3)C(=O)N[C@@H](Cc3csc4ccccc34)C(=O)N[C@@H](CCC(N)=O)C(N)=O)NC(=O)[C@H](C(C)C)NC(=O)[C@H](Cc3ccccc3)NC(=O)[C@H](C)NC(=O)[C@H](C)NC(=O)[C@H](CCC(=O)O)NC(=O)[C@H](CC(=O)O)NC1=O)NC(=O)[C@H](C)NC(=O)[C@H](CC(=O)O)NC2=O (stereo partly drawn) (system: full-length B-Catenin (Uniprot ID P35222) (Homo sapiens, UniProt P35222))
Result block: 7.18
